TEST TARGET: T1, C57BL/6 mouse SIRP-α D1 domain (mouse (C57BL/6 strain), UniProt P97797 32-148)
T1 sequence: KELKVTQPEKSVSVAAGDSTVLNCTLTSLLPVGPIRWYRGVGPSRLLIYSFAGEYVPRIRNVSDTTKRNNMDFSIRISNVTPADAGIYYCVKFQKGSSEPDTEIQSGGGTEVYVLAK
ASSAY PROCEDURE: SPR, ProteOn, antibody on chip
PARAMETER: kon
Mention the unit after the number when you answer.

Query :: kon for AB27c (antibody, mouse IgG2a, V domains shown, Full-length mouse IgG2a) VH: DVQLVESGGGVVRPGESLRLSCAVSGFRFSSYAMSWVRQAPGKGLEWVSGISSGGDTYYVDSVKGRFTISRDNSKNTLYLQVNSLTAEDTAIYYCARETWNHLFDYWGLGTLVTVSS VL: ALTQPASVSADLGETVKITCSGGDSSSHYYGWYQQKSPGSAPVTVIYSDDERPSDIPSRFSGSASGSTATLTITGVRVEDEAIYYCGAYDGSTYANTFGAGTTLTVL ?
Result :: 147000 M⁻¹ s⁻¹
